Assay: in vivo
Settings: female, CD-1, mouse, po, 250 mg/kg
property_name: AUC (µg·h/mL)
Report the figure in µg·h/mL without appending any unit label.

Query :: Look up AUC for this compound: CNC(=O)C(=O)[C@H](CCC(C)(F)F)NC(=O)[C@@H]1[C@H]2CCC[C@H]2CN1C(=O)[C@@H](NC(=O)OC)C(C)(C)C [MK-7845]
Result :: 146

---

Molecular target: UniProt P0C6X2
Sequence (P0C6X2 3335-3637 limits assumed): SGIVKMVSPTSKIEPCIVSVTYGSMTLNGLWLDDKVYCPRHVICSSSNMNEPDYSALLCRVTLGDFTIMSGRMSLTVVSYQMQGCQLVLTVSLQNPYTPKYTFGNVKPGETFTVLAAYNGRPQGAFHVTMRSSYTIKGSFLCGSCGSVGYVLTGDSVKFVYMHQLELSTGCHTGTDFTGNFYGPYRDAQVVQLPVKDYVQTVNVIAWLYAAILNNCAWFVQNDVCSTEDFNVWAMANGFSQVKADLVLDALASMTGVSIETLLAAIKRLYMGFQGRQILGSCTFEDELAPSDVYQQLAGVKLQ
Assay: biochemical
property_name: pIC50
Note on units: pIC50 is unitless, being -log10 of a concentration expressed in mol/L.

Query :: Look up pIC50 for this compound: CNC(=O)C(=O)[C@H](CCC(C)(F)F)NC(=O)[C@@H]1[C@H]2CCC[C@H]2CN1C(=O)[C@@H](NC(=O)OC)C(C)(C)C
Result :: 7.59

---

As shown below, each of these compounds has a reported EC50 value.
Assay: in vitro
Details: human

compound	reported_result
CC(C)(C)[C@H](NC(=O)C(F)(F)F)C(=O)N1C[C@H]2[C@@H]([C@H]1C(=O)N[C@H](C#N)C[C@@H]1CCNC1=O)C2(C)C [Nirmatrelvir, nirmatrelvir]	> 36 µM

Query :: Look up EC50 for this compound: CNC(=O)C(=O)[C@H](CCC(C)(F)F)NC(=O)[C@@H]1[C@H]2CCC[C@H]2CN1C(=O)[C@@H](NC(=O)OC)C(C)(C)C [MK-7845]
Result :: > 36 µM

---

Assay: in vivo
Settings: female, CD-1, mouse, iv, 5 mg/kg
property_name: half-life (min)
Report the figure in min without appending any unit label.

Query :: Look up half-life for this molecule: CNC(=O)C(=O)[C@H](CCC(C)(F)F)NC(=O)[C@@H]1[C@H]2CCC[C@H]2CN1C(=O)[C@@H](NC(=O)OC)C(C)(C)C
Result :: 47.4

---

System: MERS-CoV
Test: microbe, parasite or virus in culture
Assay type: cell-based
Conditions: Middle East respiratory syndrome-related coronavirus, read-out: EC50 Geomean
property_name: EC50 (nM)
Report the figure in nM without appending any unit label.

In [3]: df
Out[3]:
                                smiles_text  reported_result
0  CC(C)(C)[C@H](NC(=O)C(F)(F)F)C(=O)N1C[C@H]2[C@@H]([C@H]1C(=O)N[C@H](C#N)C[C@@H]1CCNC1=O)C2(C)C               70

Query :: Given the entry CCC(CC)COC(=O)[C@H](C)N[P@](=O)(OC[C@H]1O[C@@](C#N)(c2ccc3c(N)ncnn23)[C@H](O)[C@@H]1O)Oc1ccccc1 , what EC50 was observed with MERS-CoV?
Result :: 150

Query :: Please give the result for CNC(=O)C(=O)[C@H](CCC(C)(F)F)NC(=O)[C@@H]1[C@H]2CCC[C@H]2CN1C(=O)[C@@H](NC(=O)OC)C(C)(C)C too.
Result :: 390

---

Assay: in vivo
Details: female, CD-1, mouse, iv, 5 mg/kg
property_name: clearance (L/h/kg)
Report the figure in L/h/kg without appending any unit label.

Query :: Look up clearance for this molecule: CNC(=O)C(=O)[C@H](CCC(C)(F)F)NC(=O)[C@@H]1[C@H]2CCC[C@H]2CN1C(=O)[C@@H](NC(=O)OC)C(C)(C)C
Result :: 1.05

---

Molecular target: hCoV-NL63 3CLPro (Human coronavirus NL63, UniProt P0C6X5)
Sequence (P0C6X5 2940-3242 limits assumed): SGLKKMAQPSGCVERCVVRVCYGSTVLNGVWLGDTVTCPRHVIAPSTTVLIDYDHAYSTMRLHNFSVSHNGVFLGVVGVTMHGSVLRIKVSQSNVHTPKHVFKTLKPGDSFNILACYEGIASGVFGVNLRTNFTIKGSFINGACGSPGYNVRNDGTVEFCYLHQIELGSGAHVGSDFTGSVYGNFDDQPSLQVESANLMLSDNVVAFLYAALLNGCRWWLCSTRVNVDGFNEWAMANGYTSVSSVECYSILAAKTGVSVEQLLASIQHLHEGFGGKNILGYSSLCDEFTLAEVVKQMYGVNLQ
property_name: pIC50
Note on units: pIC50 is unitless, being -log10 of a concentration expressed in mol/L.

Query :: Look up pIC50 for this compound: CNC(=O)C(=O)[C@H](CCC(C)(F)F)NC(=O)[C@@H]1[C@H]2CCC[C@H]2CN1C(=O)[C@@H](NC(=O)OC)C(C)(C)C [MK-7845]
Result :: 6.78

---

Assay: in vivo
Conditions: female, CD-1, mouse, iv, 5 mg/kg
property_name: Vd

Query :: Look up Vd for this compound: CNC(=O)C(=O)[C@H](CCC(C)(F)F)NC(=O)[C@@H]1[C@H]2CCC[C@H]2CN1C(=O)[C@@H](NC(=O)OC)C(C)(C)C [MK-7845]
Result :: 1.2 L/kg

---

Molecular target: hCoV-229E 3CLPro (Human coronavirus 229E, UniProt P0C6X1)
Sequence (P0C6X1 2966-3267 limits assumed): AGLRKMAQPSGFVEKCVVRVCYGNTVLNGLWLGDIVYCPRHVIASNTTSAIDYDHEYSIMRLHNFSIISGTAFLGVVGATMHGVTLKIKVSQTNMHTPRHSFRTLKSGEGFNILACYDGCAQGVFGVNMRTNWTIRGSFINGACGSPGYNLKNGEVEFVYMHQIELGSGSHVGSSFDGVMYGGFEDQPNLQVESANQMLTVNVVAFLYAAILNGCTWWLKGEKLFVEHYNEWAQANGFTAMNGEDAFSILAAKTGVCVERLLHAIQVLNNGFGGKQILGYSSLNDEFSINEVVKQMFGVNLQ
property_name: pIC50
Note on units: pIC50 is unitless, being -log10 of a concentration expressed in mol/L.

Query :: Look up pIC50 for this molecule: CNC(=O)C(=O)[C@H](CCC(C)(F)F)NC(=O)[C@@H]1[C@H]2CCC[C@H]2CN1C(=O)[C@@H](NC(=O)OC)C(C)(C)C [MK-7845]
Result :: 6.51

---

Assay: in vivo
Settings: female, CD-1, mouse, po, 100 mg/kg
property_name: AUC (ng·h/mL)
Report the figure in ng·h/mL without appending any unit label.

Query :: Look up AUC for this compound: CNC(=O)C(=O)[C@H](CCC(C)(F)F)NC(=O)[C@@H]1[C@H]2CCC[C@H]2CN1C(=O)[C@@H](NC(=O)OC)C(C)(C)C
Result :: 49100
